- target_or_system: Calmodulin-sensitive adenylate cyclase (Bacillus anthracis) (UniProt P40136)
- Sequence (P40136 whole entry): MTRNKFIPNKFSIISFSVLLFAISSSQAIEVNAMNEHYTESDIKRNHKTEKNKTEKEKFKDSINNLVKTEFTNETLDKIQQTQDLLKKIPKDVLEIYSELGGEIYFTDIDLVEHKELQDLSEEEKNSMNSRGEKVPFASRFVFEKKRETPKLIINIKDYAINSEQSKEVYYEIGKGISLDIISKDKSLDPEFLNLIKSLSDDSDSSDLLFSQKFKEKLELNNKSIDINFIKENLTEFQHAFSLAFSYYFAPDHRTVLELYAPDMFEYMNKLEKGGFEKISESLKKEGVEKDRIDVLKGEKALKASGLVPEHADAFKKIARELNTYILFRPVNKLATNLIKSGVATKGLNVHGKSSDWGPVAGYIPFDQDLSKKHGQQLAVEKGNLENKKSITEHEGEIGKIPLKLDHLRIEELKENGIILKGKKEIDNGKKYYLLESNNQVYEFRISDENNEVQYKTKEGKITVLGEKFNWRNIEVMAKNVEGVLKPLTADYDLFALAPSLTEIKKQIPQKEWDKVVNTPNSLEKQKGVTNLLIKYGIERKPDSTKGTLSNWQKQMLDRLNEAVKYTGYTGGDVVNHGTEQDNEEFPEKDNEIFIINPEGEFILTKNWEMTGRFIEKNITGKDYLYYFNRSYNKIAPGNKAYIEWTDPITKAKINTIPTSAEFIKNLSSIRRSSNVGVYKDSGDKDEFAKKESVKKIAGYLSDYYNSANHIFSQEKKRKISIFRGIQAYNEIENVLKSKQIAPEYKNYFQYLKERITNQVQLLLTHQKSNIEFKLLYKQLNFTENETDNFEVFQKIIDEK
- protocol_description: Inactivation of Bacillus anthracis edema factor assessed as Kinact/Ki ratio in presence of CaM incubated for 10 to 240 mins by EnzChek pyrophosphate assay
recorded_endpoint: Ratio
One number for each entry.

compound_string: Cc1cc(OC2CCN(Cc3ccc(S(=O)(=O)F)cc3)CC2)cc(N)n1
Ratio: 7.9
//
compound_string: Cc1nc(N)c2cnn(C3CCN(Cc4ccc(S(=O)(=O)F)cc4)CC3)c2n1
Ratio: 190

I have 2 compounds here; please give me Ratio for each one.
1. Cc1nc(N)c2ncn(C3CCN(Cc4ccc(S(=O)(=O)F)cc4)CC3)c2n1
2. Nc1ncnc2c1ccn2C1CCN(C(=O)c2ccc(S(=O)(=O)F)cc2)CC1

OUT:
1. 31.2
2. 14200

Reference for the values: ChEMBL document CHEMBL4177722
